- assay details: molar heat capacity at constant pressure
- test parameters: 319.15 K; 101.33 kPa; Liquid; Large sample (1 g) DSC
Hi all, reminder that labels come from molar heat capacity at constant pressure, split as band 1: < 300 J/K/mol; band 2: ≥ 300 J/K/mol and < 400 J/K/mol; band 3: ≥ 400 J/K/mol

Ask | Category lookup for the compound CCOCCO [2-ethoxyethan-1-ol]
Reply | band 1

Ask | What about this compound? CCCCCCOCCOCCO [2-(2-hexyloxyethoxy)ethanol]
Reply | band 3

Ask | What about this compound? COCCOCCOCCO [2-[2-(2-methoxyethoxy)ethoxy]ethanol]
Reply | band 2

Ask | What about this compound? CCCCOCCOCCO [3,6-dioxa-1-decanol]
Reply | band 2

Ask | What about this compound? CCCCOCCO [2-butoxyethan-1-ol]
Reply | band 1

Ask | What about this compound? COCCOCCO [2-(2-methoxyethoxy)ethanol]
Reply | band 1

Ask | What about this compound? CCCOCCO [2-propoxyethanol]
Reply | band 1

Ask | What about this compound? CCCOCCOCCO [2-(2-propoxyethoxy)ethanol]
Reply | band 2

Ask | What about this compound? CCCCCCCCOCCOCCOCCO [2-[2-[2-(octyloxy)ethoxy]ethoxy]ethanol]
Reply | band 3

Ask | What about this compound? COCCOCCOCCOCCO [3,6,9,12-tetraoxatridecanol]
Reply | band 3

====

- assay details: molar heat capacity at constant pressure
- test parameters: 325.15 K; 101.33 kPa; Liquid; Large sample (1 g) DSC
Numbers after ± are expanded uncertainties.
quantity kind: molar heat capacity at constant pressure

Ask | I'd like to know its molar heat capacity at constant pressure. The compound in question is `COCCOCCOCCOCCO`
Reply | 455.4 ± 7.1 J/K/mol

Ask | What about this compound? `COCCOCCO`
Reply | 275.3 ± 4.3 J/K/mol

Ask | What about this compound? `CCCCCCOCCOCCO`
Reply | 433.9 ± 6.7 J/K/mol

Ask | What about this compound? `CCCCOCCOCCO`
Reply | 372.8 ± 5.8 J/K/mol

Ask | What about this compound? `CCOCCOCCO`
Reply | 310.4 ± 4.8 J/K/mol

Ask | What about this compound? COCCOCCOCCO [2-[2-(2-methoxyethoxy)ethoxy]ethanol]
Reply | 363.4 ± 5.6 J/K/mol

Ask | What about this compound? `CCCOCCOCCO`
Reply | 340.3 ± 5.3 J/K/mol

Ask | What about this compound? `CCCCOCCO`
Reply | 286.5 ± 4.4 J/K/mol

Ask | What about this compound? CCCCCCCCOCCOCCOCCO [2-[2-[2-(octyloxy)ethoxy]ethoxy]ethanol]
Reply | 589 ± 9.1 J/K/mol

Ask | What about this compound? `CCOCCO`
Reply | 221 ± 3.4 J/K/mol

Ask | What about this compound? `CCCOCCO`
Reply | 253.4 ± 3.9 J/K/mol

====

- assay details: molar heat capacity at constant pressure
- test parameters: 291.15 K; 101.33 kPa; Liquid; Large sample (1 g) DSC
// label = MET if molar heat capacity at constant pressure is not less than 400 J/K/mol, otherwise NOT MET

Ask | Exam item: decide whether the reported molar heat capacity at constant pressure for `CCOCCOCCO` is at least 400 J/K/mol.
Reply | NOT MET

Ask | What about this molecule? `CCCCOCCOCCO`
Reply | NOT MET

Ask | What about this molecule? `COCCOCCOCCOCCO`
Reply | MET

Ask | What about this molecule? CCCCCCCCOCCOCCOCCO [2-[2-[2-(octyloxy)ethoxy]ethoxy]ethanol]
Reply | MET

Ask | What about this molecule? `COCCOCCO`
Reply | NOT MET

Ask | What about this molecule? `CCCCCCOCCOCCO`
Reply | MET

Ask | What about this molecule? COCCOCCOCCO [2-[2-(2-methoxyethoxy)ethoxy]ethanol]
Reply | NOT MET

Ask | What about this molecule? `CCCCOCCO`
Reply | NOT MET

Ask | What about this molecule? `CCOCCO`
Reply | NOT MET

Ask | What about this molecule? `CCCOCCO`
Reply | NOT MET

Ask | What about this molecule? `CCCOCCOCCO`
Reply | NOT MET
